The measured values listed here are drawn from paper PMC9828254.

# Test system: U2OS cells
# Protocol: Cell Painting assay (CPA), morphological fingerprints
# Type: cell-based, human
# Test context: concentration not given; similar if biosimilarity >75 %

Compound	biosimilarity (BioSim) to brequinar
CO/C(=C/C(N)=O)[C@H](C)[C@H](/C=C/c1csc(-c2csc([C@@H](C)/C=C/C=C/C(C)C)n2)n1)OC	biosimilar
CCCCCC[C@H]1C(=O)O[C@H](C)[C@H](NC(=O)c2cccc(NC=O)c2O)C(=O)O[C@@H](C)[C@@H]1OC(=O)CC(C)C [antimycin A]	biosimilar

* * *

# reported inhibition at 10 µM; entries follow
# Target under test: Human DHODH (Homo sapiens, UniProt Q02127)
# Construct: 40 μL of purified DHODH (aa31–395, final concentration: 1.25 μg/mL); made in house; host or cells: E. coli BL21 (DE3)
# Sequence (Q02127 31-395): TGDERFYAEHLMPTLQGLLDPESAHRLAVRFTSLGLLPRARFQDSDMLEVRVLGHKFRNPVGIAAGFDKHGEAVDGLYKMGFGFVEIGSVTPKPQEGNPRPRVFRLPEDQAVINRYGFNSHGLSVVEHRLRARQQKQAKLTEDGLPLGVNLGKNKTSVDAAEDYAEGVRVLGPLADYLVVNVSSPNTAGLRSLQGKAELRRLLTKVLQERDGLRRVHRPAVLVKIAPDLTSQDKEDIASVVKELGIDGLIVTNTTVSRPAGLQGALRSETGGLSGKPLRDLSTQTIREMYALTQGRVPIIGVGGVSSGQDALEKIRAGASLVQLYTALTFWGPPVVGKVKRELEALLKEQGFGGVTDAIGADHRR
# Protocol: DHODH enzymatic assay (DCPIP reduction)
# Assay type: biochemical
# Test context: 10 μM compound; 30 min preincubation; read-out: reduction (inhibition) of in vitro DHODH activity

Smiles string	inhibition at 10 µM
O=C(Nc1cccnc1)N1Cc2cccc(c2)CN(S(=O)(=O)C(F)(F)F)CC/C=C/C[C@@H]1CO	> 50%
Brc1ccc2[nH]c3c(c2c1)CCOC31CCCCC1	27 to 44%
COc1ccc2[nH]c3c(c2c1)CCO[C@]31CC[C@@]2(Oc3c(Cl)c(OC)cc(OC)c3C2=O)[C@H](C)C1	> 50%
CN1C(=O)[C@@]2(C(=O)N(Cc3ccncc3)c3ccc(OC(F)(F)F)cc32)c2ccccc21	27 to 44%
COc1cc(OC)c2c(c1Cl)O[C@@]1(CC[C@@]3(C[C@H]1C)OCCc1c3[nH]c3ccc(C)cc13)C2=O	27 to 44%
